Source: patent USRE49816E1

- TARGET: hu i-20S β5i-subunit (Homo sapiens, UniProt P20618+P28062)
- EXPERIMENT DESCRIPTION: N,C-capped dipeptides IC50, Ac-ANW-AMC fluorescence assay
- Type: biochemical
- TEST SETTINGS: Hu c-20S over Hu i-20S
Field: SI (selectivity index). Provide a value for each of the compounds that follow.

> print(dat)
                              line.notation  assay.result
1  Cc1ccc(S(=O)(=O)N[C@@H](CCC(=O)NC(C)(C)C)C(=O)N[C@@H](C)C(=O)NCc2cccc(C(F)(F)F)c2)cc1            17
2  CC(C)(C)NC(=O)C[C@H](NC(=O)CCc1ccccc1)C(=O)N[C@@H](Cc1ccc(F)cc1)C(=O)NCc1cccc2ccccc12        >19000
3  C[C@H](NC(=O)[C@H](CC(=O)NOC(C)(C)C)NC(=O)CCc1ccccc1)C(=O)NCc1cccc2[nH]ccc12            10
4  COC[C@H](NC(=O)[C@H](CC(=O)NOC(C)(C)C)NC(=O)CCc1ccccc1)C(=O)NCc1cccc(OC)c1OC             5

Problem: Tell us which SI (selectivity index) value is on record for `CC(=O)N[C@@H](Cc1ccc(F)cc1)C(=O)NCc1cccc2ccccc12`
Result: >2
